test system: Caco-2 (human colonic epithelial cell line); assay: Uptake of labeled peptides by Caco-2 cells, photometric cell imaging; type: cell-based; details: labeled peptide 4 μM, 1 hr; background about 1×10^5 counts/sec
recorded metric: Photometric Cell Imaging (average counts/sec) Caco-2

residue_codes="MWWRRSRTNSLRYT (listed as Arabidopsis thaliana) [mTP4]" system_under_test="Caco-2 (human colonic epithelial cell line)" numeric_result=300000
residue_codes="MAAWMRSLFSPLKKLWIRMH (Zea mays) [mTP2]" system_under_test="Caco-2 (human colonic epithelial cell line)" numeric_result=340000
residue_codes="MLFRLRRSVRLRGLLA (listed as Arabidopsis thaliana) [mTP5]" system_under_test="Caco-2 (human colonic epithelial cell line)" numeric_result=280000
residue_codes="MKLLWRLILSRKW (listed as Arabidopsis thaliana) [mTP3]" system_under_test="Caco-2 (human colonic epithelial cell line)" numeric_result=460000
residue_codes="MFSYLPRYPLRAASARALVRATRPSYRSALLRYQ (listed as Triticum aestivum) [mTP1]" system_under_test="Caco-2 (human colonic epithelial cell line)" numeric_result=200000

* * *

// values below are reported Photometric Cell Imaging (average counts/sec) MG
Test system: MG (bovine mammary gland) cells
Experiment: Uptake of labeled peptides by MG cells, photometric cell imaging
Assay type: cell-based
Details: labeled peptide 17 μM, 1 hr; background about 1×10^5 counts/sec
Experimental: MG cells are cultured in Dulbecco's Modified Eagle Medium (DMEM) containing 20% (v/v) fetal bovine serum (FBS) and 50 μg/ml gentamycin at 37° C. in a 95% humidified atmosphere containing 5% CO2. […] Uptake of labeled peptides by cells is quantified using a photometric detector/cell-imaging system (PTI). […] A time-based scan is then performed at the optimal excitation and emission wavelength to quantify total uptake, using about 20 cells/view/replicate.
recorded metric: Photometric Cell Imaging (average counts/sec) MG

residue_codes="MKLLWRLILSRKW (listed as Arabidopsis thaliana) [mTP3]" unit_string=counts/sec numeric_result=1500000
residue_codes="MFSYLPRYPLRAASARALVRATRPSYRSALLRYQ (listed as Triticum aestivum) [mTP1]" unit_string=counts/sec numeric_result=1900000
residue_codes="MAAWMRSLFSPLKKLWIRMH (Zea mays) [mTP2]" unit_string=counts/sec numeric_result=1500000
residue_codes="MLFRLRRSVRLRGLLA (listed as Arabidopsis thaliana) [mTP5]" unit_string=counts/sec numeric_result=1600000
residue_codes="MWWRRSRTNSLRYT (listed as Arabidopsis thaliana) [mTP4]" unit_string=counts/sec numeric_result=1400000

* * *

system: MG (bovine mammary gland) cells; assay: Uptake of labeled peptides by MG cells, photometric cell imaging; type: cell-based; settings: labeled peptide 9 μM, 1 hr; background about 1×10^5 counts/sec
recorded metric: Photometric Cell Imaging (average counts/sec) MG

residue_codes="MWWRRSRTNSLRYT (listed as Arabidopsis thaliana) [mTP4]" system_under_test="MG (bovine mammary gland) cells" result="1200000 counts/sec"
residue_codes="MKLLWRLILSRKW (listed as Arabidopsis thaliana) [mTP3]" system_under_test="MG (bovine mammary gland) cells" result="1000000 counts/sec"
residue_codes="MFSYLPRYPLRAASARALVRATRPSYRSALLRYQ (listed as Triticum aestivum) [mTP1]" system_under_test="MG (bovine mammary gland) cells" result="1800000 counts/sec"
residue_codes="MAAWMRSLFSPLKKLWIRMH (Zea mays) [mTP2]" system_under_test="MG (bovine mammary gland) cells" result="160000 counts/sec"
residue_codes="MLFRLRRSVRLRGLLA (listed as Arabidopsis thaliana) [mTP5]" system_under_test="MG (bovine mammary gland) cells" result="1400000 counts/sec"
